Tested on: SF-268
measurement-protocol: NCI tumour cell line growth inhibition, 48 h
Activity calls are given as the source filed them. Cut-off read from the data, not from the text of the source: active = GI50 up to about 1.1 µM and inactive = higher.
Your answer must be one of the following: active, inactive

Which outcome was entered for the compound N#CC(C(=O)CCC(=O)Nc1ccc(Cl)c(Cl)c1)c1ccc(Cl)cc1 (stereo unspecified) in this test?
inactive

Which outcome was entered for the compound O=C(Nc1cccc2ccccc12)c1ccccc1 in this test?
inactive

Which outcome was entered for the compound CC(C)(C)c1cc(OCc2nnc3sc(S)nn23)c(Cl)cc1OCc1nnc2sc(S)nn12 in this test?
inactive

Which outcome was entered for the compound COc1ccc2c(c1)Oc1cc(O)ccc1[C@@H]2c1ccccc1C(=O)NC(C)c1ccccc1 (stereo partly specified) in this test?
inactive

Which outcome was entered for the compound CCCCCOCC(O)CO (stereo unspecified) in this test?
inactive

Which outcome was entered for the compound c1ccc2cc(OCC3CO3)c(OCC3CO3)cc2c1 (stereo unspecified) in this test?
active

Which outcome was entered for the compound O=C1Nc2cccc(Cl)c2/C1=C\c1c(Cl)nc2sccn12 in this test?
inactive

Which outcome was entered for the compound CCOC(=O)C(NC(=O)CC)(Nc1ccc(S(=O)(=O)Nc2nc(C)cc(C)n2)cc1)C(F)(F)F (stereo unspecified) in this test?
inactive

Which outcome was entered for the compound O=C(Cn1c2c(c3ccccc31)CCCC2)N1CCOCC1 in this test?
inactive

Which outcome was entered for the compound N/N=C(\c1nc2ccc([N+](=O)[O-])cc2nc1O)C(O)c1ccc(Cl)c(Cl)c1 (stereo unspecified) in this test?
inactive

Which outcome was entered for the compound COC(=O)C1=C(C)C=C(N2CCOCC2)C(C(=O)OC)C1c1ccccc1 (stereo unspecified) in this test?
inactive

* * *

Tested on: PC-3
measurement-protocol: NCI tumour cell line growth inhibition, 48 h
Active and inactive are the calls of the source. Rule as the data show it: active = GI50 up to about 1.1 µM and inactive = higher.
Consider the following compounds; for each one, report its GI50.

Can you share its GI50? I mean this compound: COC1(CC[C@@H](C)COC2OC(CO)C(O)C(O)C2O)O[C@H]2C[C@H]3[C@@H]4CC=C5C[C@@H](OC6OC(CO)C(OC7OC(C)C(O)C(O)C7O)C(O)C6OC6OC(C)C(O)C(O)C6O)CC[C@]5(C)[C@H]4CC[C@]3(C)[C@H]2[C@@H]1C (some centres undefined)
3.13 µM (inactive)

Can you share its GI50? I mean this compound: Cc1ccc(S(=O)(=O)NC(=N)N(C)N=O)cc1
> 100 µM (inactive)

Can you share its GI50? I mean this compound: CCOP(=O)(OCC)c1ccc(=O)[nH]c1-c1cccs1
> 100 µM (inactive)

Can you share its GI50? I mean this compound: C/C(=N\NC(=O)c1ccncc1)c1ccccc1F
> 10 µM (inactive)

Can you share its GI50? I mean this compound: Cc1ccc(/C=N\NC(=O)c2ccncc2)s1
> 100 µM (inactive)

Can you share its GI50? I mean this compound: O=C(O)CC(NC(=O)/C(=C/c1ccccc1O)NC(=O)c1ccccc1)C(=O)O (centres undefined)
86.1 µM (inactive)

Can you share its GI50? I mean this compound: COc1ccc(/C=C(/c2ccccc2)c2c(C)cc(C)c(/C(=C\c3ccc(OC)cc3)c3ccccc3)c2/N=N/c2cc(C)cc(C)c2)cc1
9.89 µM (inactive)

Can you share its GI50? I mean this compound: CCCCCCCCCCCCCCCCCCNc1ccn(C2OC(COP(=O)(O)OC3CC(n4cc(F)c(=O)[nH]c4=O)OC3COP(=O)(O)OCC3OC(n4ccc(N)nc4=O)C(O)C3O)C(O)C2O)c(=O)n1 (centres undefined)
7.14 µM (inactive)

Can you share its GI50? I mean this compound: Cc1ccc(C)c(N2C(=O)C(=O)c3c(C)ccc(C)c32)c1
23 µM (inactive)

* * *

Test system: DMS-273
measurement-protocol: NCI tumour cell line growth inhibition, 48 h
The source made the active and inactive calls. Rule as the data show it: active = GI50 up to about 1.1 µM and inactive = higher.
result-type: GI50

Can you share its GI50? I mean this compound: CCOC(=O)C(C(CC(=O)OC)NC(=O)OCc1ccccc1)C1(C)OCCO1 (centres undefined)
> 100 µM (inactive)

Can you share its GI50? I mean this compound: Cc1ccc2c(ccc(/C=C\c3cc(C)c4cccnc4c3O)[n+]2C)c1
0.352 µM (active)

Can you share its GI50? I mean this compound: CC1=C2C(=O)[C@H]3[C@@H](CC=C4C[C@@H](O)CC[C@@]43C)[C@@H]2CC[C@]12O[C@@H]1C[C@H](C)CN[C@H]1[C@H]2C
22 µM (inactive)

Can you share its GI50? I mean this compound: CN(C)C(=S)/N=c1\ss/c(=N\C(=S)N(C)C)n1Cc1ccco1
> 100 µM (inactive)

* * *

System: SW-620
measurement-protocol: NCI tumour cell line growth inhibition, 48 h
Calls of active or inactive are those of the source. Cut-off read from the data, not from the text of the source: active = GI50 up to about 1.1 µM and inactive = higher.
Consider the following compounds; for each one, report its GI50.

Entry O=C1CCC2(CC1CCSc1ccccc1)OCCO2 (stereo unspecified) , system SW-620: what GI50 was measured?
> 100 µM (inactive)

Entry COC(=O)CC(=O)OC , system SW-620: what GI50 was measured?
> 100 µM (inactive)

Entry COC(=O)/C=C/c1c(CC=C(C)C)ncn1C , system SW-620: what GI50 was measured?
6.79 µM (inactive)

Entry Nc1ccc(Nc2cc(O)nc(O)n2)cc1 , system SW-620: what GI50 was measured?
> 100 µM (inactive)

Entry N=C(N)SCCON1C(=O)c2ccccc2C1=O , system SW-620: what GI50 was measured?
> 100 µM (inactive)

Entry CC(C)c1cc(Cl)nc(Cl)n1 , system SW-620: what GI50 was measured?
> 100 µM (inactive)

* * *

Tested on: MDA-MB-435
measurement-protocol: NCI tumour cell line growth inhibition, 48 h
Activity calls are given as the source filed them. Cut-off read from the data, not from the text of the source: active = GI50 up to about 1.1 µM and inactive = higher.
Your answer must be one of the following: active, inactive

Which outcome was entered for the molecule O=C(C=P(c1ccccc1)(c1ccccc1)c1ccccc1)c1ccccc1-c1ccccc1C(=O)C=P(c1ccccc1)(c1ccccc1)c1ccccc1 in this test?
active

Which outcome was entered for the molecule Cc1ccc(N2CCN(CCC(=O)O)CC2)cc1 in this test?
inactive

Which outcome was entered for the molecule CCCCN1CN2C(=O)C(C(=O)OCC)C(=O)c3sc4nc(SC)nc1c4c32 (stereo unspecified) in this test?
inactive

Which outcome was entered for the molecule O=C(O)/C=C/C(=O)Nc1cccc2c1-c1ccccc1C2=O in this test?
inactive

Which outcome was entered for the molecule CCOC(=O)C1C(c2ccccc2)C2(C#N)C(=N)OC1(C)C2(C#N)C#N (stereo unspecified) in this test?
inactive

Which outcome was entered for the molecule C=C1C(=O)CC2C1CC(=O)/C(C)=C/CCC(C)(O)C2O (stereo unspecified) in this test?
inactive

* * *

Tested on: NCI-H522
measurement-protocol: NCI tumour cell line growth inhibition, 48 h
The source made the active and inactive calls. Cut-off read from the data, not from the text of the source: active = GI50 up to about 1.1 µM and inactive = higher.
result-type: GI50

Can you share its GI50? I mean this molecule: CCOC(=O)c1cc(-n2nnc3ccccc32)cn1C
> 10 µM (inactive)

Can you share its GI50? I mean this molecule: COc1ncnc2c1cnn2Cc1cn(CCCCO)nn1
> 100 µM (inactive)

Can you share its GI50? I mean this molecule: COC(=O)/C=C/c1c(CC=C(C)C)ncn1C
25.3 µM (inactive)

Can you share its GI50? I mean this molecule: CC/C=C/C(/C=C/C[C@]1(CC)C[C@H](CC)[C@H](CC(=O)O)OO1)CC (some centres undefined)
1.75 µM (inactive)

* * *

Test system: A498
measurement-protocol: NCI tumour cell line growth inhibition, 48 h
Active and inactive are the calls of the source. No stated cut-off is given here; in the data, active = GI50 up to about 1.1 µM and inactive = higher.
Your answer must be one of the following: active, inactive

Which outcome was entered for the compound O=[N+]([O-])c1ccc2nc3ccccc3cc2c1 in this test?
inactive

Which outcome was entered for the compound CCOC(=O)/C(C)=C(/O)C(=O)OCC in this test?
inactive

Which outcome was entered for the compound Nc1csc(-c2scc3c2OCCO3)c1N in this test?
inactive

Which outcome was entered for the compound Nc1n/c(=N\c2ccccc2)ss1 in this test?
inactive

Which outcome was entered for the compound Cc1c(-c2coc(-c3ccc([N+](=O)[O-])cc3)n2)c(=O)n(-c2ccccc2)n1C in this test?
inactive

Which outcome was entered for the compound CCCCS(=N)(=O)CC[C@H](N)C(=O)O (stereo partly specified) in this test?
inactive

Which outcome was entered for the compound Nc1ccccc1.O=C(O)C(C(F)(F)F)C(F)(F)F in this test?
inactive

Which outcome was entered for the compound COc1ccc(-c2csc(Cc3nc4c(Br)cc(Br)cc4c(=O)n3-c3ccc(OC)cc3)n2)cc1 in this test?
inactive

Which outcome was entered for the compound C=C1CC(C)(c2cccc(Nc3nc4ccccc4c4occc34)c2)OC1=O (stereo unspecified) in this test?
inactive

Which outcome was entered for the compound NC(=S)N1N=C2c3ccccc3CC[C@@H]2[C@@H]1c1ccccc1 in this test?
inactive

Which outcome was entered for the compound O=C(C=P(c1ccccc1)(c1ccccc1)c1ccccc1)c1ccccc1-c1ccccc1C(=O)C=P(c1ccccc1)(c1ccccc1)c1ccccc1 in this test?
active
